meta.source: patent US12421253B2

# STUDY TARGET: KRas^Q61H (Homo sapiens, UniProt P01116, Q61H)
# Sequence (P01116 1-169 isoform P01116-2 Q61H): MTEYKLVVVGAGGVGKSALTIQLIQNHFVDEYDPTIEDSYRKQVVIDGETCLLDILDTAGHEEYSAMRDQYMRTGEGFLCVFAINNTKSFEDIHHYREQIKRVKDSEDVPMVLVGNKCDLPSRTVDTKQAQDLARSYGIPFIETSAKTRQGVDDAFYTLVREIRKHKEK
# TEST SUMMARY: biochemical
pIC50: −log10 of the molar value.
PROPERTY LABEL: pIC50

COMPOUND | OBS VALUE
CCc1cccc2cccc(N3CCc4c(nc(OCC56CCCN5CCC6)nc4N4CCCn5nc(C)cc5C4)C3)c12 | 5.25

a. CCc1cccc2cccc(N3CCc4c(nc(OCC56CCCN5CCC6)nc4N4CCCC(c5nnc(CO)n5C)C4)C3)c12 (centres unmarked)
b. CCc1cccc2cccc(N3CCc4c(nc(OCC56CCCN5CCC6)nc4N4CCCC(N5CC(C)CS5(=O)=O)C4)C3)c12 (centres unmarked)
Between a and b , whose measured pIC50 reads higher? Return value: the label identifying the chosen record. b

A. CCc1cccc2cccc(N3CCc4c(nc(OCC56CCCN5CCC6)nc4N4CCCC(C(C)O)C4)C3)c12 (centres unmarked)
B. CCc1cccc2cccc(N3CCc4c(nc(OCC56CCCN5CCC6)nc4N4CCOCC(n5cncn5)C4)C3)c12 (centres unmarked)
Between A and B , whose measured pIC50 reads higher? Return value: the label identifying the chosen record. B

* * *

# STUDY TARGET: KRas^G13D (Homo sapiens, UniProt P01116, G13D)
# Sequence (P01116 1-169 isoform P01116-2 G13D): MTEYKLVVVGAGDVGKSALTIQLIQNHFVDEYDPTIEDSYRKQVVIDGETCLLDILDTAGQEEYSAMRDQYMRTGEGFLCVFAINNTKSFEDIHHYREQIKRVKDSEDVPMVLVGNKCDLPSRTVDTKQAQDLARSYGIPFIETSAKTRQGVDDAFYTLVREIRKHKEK
# TEST SUMMARY: biochemical
PROPERTY LABEL: IC50 (nM)

COMPOUND | OBS VALUE
Cc1cccc2cccc(N3CCc4c(nc(OCC56CCCN5CCC6)nc4N4CC5C(=O)NC(=O)C5C4)C3)c12 (stereo not drawn) [Example 80] | 213

1. CCc1cccc2cccc(N3CCc4c(nc(OCC56CCCN5CCC6)nc4N4Cc5ccnn5CC(O)C4)C3)c12 (stereo not drawn) [Example 50]
2. CCc1cccc2cccc(N3CCc4c(nc(OCC56CCCN5CCC6)nc4NCc4nnc(N)o4)C3)c12 [Example 136]
3. CCc1cccc2cccc(N3CCc4c(nc(OCC56CCCN5CCC6)nc4N4CCCN(C(N)=O)CC4)C3)c12 [Example 95]
4. CCc1cccc2cccc(N3CCc4c(nc(OCC56CCCN5CCC6)nc4N4CCOC5(CCSC5)C4)C3)c12 (stereo not drawn) [Example 130]
Order the records, beginning with the lowest IC50 and ending with the highest. Give your ranking as a list of the labels in the requested order. 3, 1, 4, 2
(3: 254 nM, 1: 800 nM, 4: 1160 nM, 2: 3280 nM)

A. CCc1cccc2cccc(N3CCc4c(nc(OCC56CCCN5CCC6)nc4N4CCCC(S(=O)(=O)NC)C4)C3)c12 (stereo not drawn) [Example 125]
B. CCc1cccc2cccc(N3CCc4c(nc(OCC56CCCN5CCC6)nc4N4CCCC(c5nnc6n5CCC6)C4)C3)c12 (stereo not drawn) [Example 106]
Between A and B , whose measured IC50 reads higher? Return value: the label identifying the chosen record. B

1. CCc1cccc2cccc(N3CCc4c(nc(OCC56CCCN5CCC6)nc4N4CC(O)C(O)C(O)C4)C3)c12 (stereo not drawn) [Example 101]
2. CCc1cccc2cccc(N3CCc4c(nc(OCC56CCCN5CCC6)nc4NCCNc4ncccc4C#N)C3)c12 [Example 154]
3. CCc1cccc2cccc(N3CCc4c(nc(OCC56CCCN5CCC6)nc4N4CCCC(n5nccn5)C4)C3)c12 (stereo not drawn) [Example 132]
Ordering criterion: IC50; begin with the maximum. Give your ranking as a list of the labels in the requested order. 2, 3, 1
